- procedure_summary: Pharmacokinetic study in rat
- Type: in vivo, Sprague-Dawley rat
- measurement_setup: male, Sprague-Dawley, plasma; SD rat, IV infusion, 4.7 mg/kg/day for 7 days; read-out: average steady state concentration

# smiles_string, concentration at 7 days (nM)
measured = [
    ("CC(C)N(C[C@H]1O[C@@H](n2cnc3c(N)ncnc32)[C@H](O)[C@@H]1O)[C@H]1C[C@@H](CCc2nc3cc(C(C)(C)C)ccc3[nH]2)C1", 78),
]

---

- procedure_summary: Pharmacokinetic study in mouse
- Assay type: in vivo, CD-1 mouse
- measurement_setup: male, CD-1, mouse, plasma, iv, 5 mg/kg, IV bolus

# smiles_string, unit_of_measure, half-life
measured = [
    ("CC(C)N(C[C@H]1O[C@@H](n2cnc3c(N)ncnc32)[C@H](O)[C@@H]1O)[C@H]1C[C@@H](CCc2nc3cc(C(C)(C)C)ccc3[nH]2)C1", "h", 1.1),
]
